# Test system: FT3469 (normal neural stem cell line);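 further: cell Painting imaging in 384-well plates, CellProfiler features reduced to at least 20 principal components, Euclidean distance versus same-plate DMSO vehicle wells (0.1% v/v), median over six images per well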
# methodSummary: phenotypic distance (Euclidean, principal components) from DMSO controls (arbitrary units); higher = stronger morphological change
# runParameters: 4.1 nM; exposure time: 72 h
Counter-ions that a name gives are not always drawn.
Use phenotypic distance to assign classes; range list: lower band: < 0.6; central band: ≥ 0.6 and < 1; upper band: ≥ 1

Query: Would you mind sorting Clc1ccc(CSC(Cn2ccnc2)c2ccc(Cl)cc2Cl)cc1 (centres undefined) [Sulconazole nitrate] into the appropriate category?
Reply: central band

Query: Would you mind sorting S=c1[nH]cnc2nc[nH]c12 into the appropriate category?
Reply: lower band

Query: Would you mind sorting NC(=O)c1ccccc1 [Benzamide] into the appropriate category?
Reply: lower band

Query: Would you mind sorting CC1(C(=O)O)C2CCC(O2)C1(C)C(=O)O (centres undefined) into the appropriate category?
Reply: upper band

Query: Would you mind sorting C[C@@H](Oc1cc(-c2cnn(C3CCNCC3)c2)cnc1N)c1c(Cl)ccc(F)c1Cl into the appropriate category?
Reply: lower band

Query: Would you mind sorting N=c1ccn2c(n1)O[C@H]1[C@H](O)[C@@H](CO)O[C@H]12 [Ancitabine hydrochloride] into the appropriate category?
Reply: upper band

Query: Would you mind sorting CN(c1nccc(=O)[nH]1)C1CCN(c2nc3ccccc3n2Cc2ccc(F)cc2)CC1 into the appropriate category?
Reply: lower band

Query: Would you mind sorting CN[C@@H]1[C@@H](O)[C@@H](O[C@@H]2[C@@H](O)[C@H](O[C@H]3OC(CN)=CC[C@H]3N)[C@@H](N)C[C@H]2N)OC[C@]1(C)O [Sisomicin sulfate] into the appropriate category?
Reply: central band

Query: Would you mind sorting CCn1cc(-c2ccnc3[nH]c(-c4cccc(CN(C)C)c4)cc23)c(-c2ccc(NC(=O)N(C)C)cc2)n1 into the appropriate category?
Reply: upper band

Query: Would you mind sorting CC1(C)S[C@@H]2[C@H](NC(=O)Cc3ccccc3)C(=O)N2[C@H]1C(=O)O [Benzylpenicillin sodium] into the appropriate category?
Reply: lower band

Query: Would you mind sorting CCC(C)(C)c1ccc(CC(C)CN2C[C@@H](C)O[C@@H](C)C2)cc1 (some centres undefined) [Amorolfine hydrochloride] into the appropriate category?
Reply: upper band

Query: Would you mind sorting O=C(C1CC1)N1CC[C@@H](Cc2n[nH]c(=O)n2-c2ccc(-c3ccc4occc4c3)cc2)C1 into the appropriate category?
Reply: upper band

Query: Would you mind sorting CC(=O)O[C@@]12CO[C@@H]1C[C@H](O)[C@@]1(C)C(=O)[C@H](O)C3=C(C)[C@@H](OC(=O)[C@H](O)[C@@H](NC(=O)OC(C)(C)C)c4ccccc4)C[C@@](O)([C@@H](OC(=O)c4ccccc4)[C@H]21)C3(C)C into the appropriate category?
Reply: upper band
